// data source = the DeepSol protein solubility set

Test: soluble on expression in E. coli; label from the status in PepcDB or PDB records
measurement.label: soluble on expression in E. coli

These recorded examples may help you get a feel for the data.
>  <residue.string>
MGHHHHHHSHMGLYHVGQAGLELLTSSDPPTSASQNAEITGVSHRAQSKAHNLQRKLRLSHKSSPPCTYTQHAGGVDSHPLTQDMCVIVNVIARPFDKCNCDIYLGLASELFVVSWVQLTVPYHWIQTLGNVILFCLDTAHRGHCDIAGHCT

>  <measurement.label>
soluble on expression in E. coli

>  <meas.value>
not soluble

$$$$
>  <residue.string>
MSLKLHKGIKEYECKECHRRFAQKVNMLKHCKRHTGIKDFMCELCGKTFSERNTMETHKLIHTVGKQWTCSVCDKKYVTEYMLQKHVQLTHDKVEAQSCQLCGTKVSTRASMSRHMRRKHPEVLAVRIDEGHHHHHH

>  <measurement.label>
soluble on expression in E. coli

>  <meas.value>
soluble

$$$$
>  <residue.string>
MDRVLPFRFAEEEGVFWLLDQRRLPQEEVYVPVRTAREMAQAIRDMVVRGAPAIGVSAAFGMVLAHLAGEDLEEADRRLRASRPTAVNLFHALDRMRPFWGDLAGSLLEARRIWREVEETEAAISRHGAQVLWGQVLTHCNTGPLATGGYGTALGAIVEAYRLGRVRHVWVDETRPYLQGARLTAYELQKAGVPATLITDGMAGWLMARGAVDAVVVGVDRMALNGDFANKVGTYALAVLAHHHGIPFYAALPLSSVDPRLASGEGIPIEERSPEEVVAFRGVRIAPEGFPAYHPAFDVTPHRYLTGIITEKGVLYPPFAEGLRRALGLD

>  <measurement.label>
soluble on expression in E. coli

>  <meas.value>
soluble

$$$$
>  <residue.string>
MTDVEKPVDNSGTLIDDILSPLKGVNEDLNVLVLGGDKVNNNTDTMMLVNFKPSTSKVSILSIPRDTKVKINGKKAKINSAYPTGGGELAVQTVSELFGIDVKYYVFVDTSSFRKIIDILGGVDYYVPVDMDYDDPLQGLSIHIKKGQHHFDGAMAEKFMRFRQYNNGRVNEYYDGSDLKRIDAQQNFIRELVRQKLNIFYLTKVDDIASTIFSNIDTNLNMSEVLKLTGSVSKVQADSINMLKVPGKSVLDGAWYYVIDSQETDKIINEYFRTRYKLEHHHHHH

>  <measurement.label>
soluble on expression in E. coli

>  <meas.value>
soluble

$$$$

Let us examine a further case.
Q. Requested field: soluble on expression in E. coli. Item: `MEEGSAIDYQRVPPLSGTHYASTVSAGFYEATPLLGSLVHTLEHGAVIVYYDPDEISPEARQSLREFSSVHTGTWRSVVAVPNPNDDPRATYVVTAWQHELTIDSYDAETVHAFLSEYLGRGPENPVRLEHHHHHH`
A. soluble
